System: FAB9
Experiment: qHTS profiling for inhibitors of Plasmodium falciparum proliferation (AID 504749); also: nearly all actives have a fitted effect of over 60% in size
Details: P. falciparum in erythrocytes, SYBR Green DNA, 72 h; series mostly up to 28.7 µM
Inconclusive results are not listed. Activity calls are given as the source filed them. Calls follow the shape of the dose curve; as a rule, active = well fitted inhibition curve with a large enough effect; inconclusive = small, poorly fitted or top-dose-only effect; inactive = flat fitted curve, though single readings scatter.
Pick one and only one: active, inactive

*Q* Lab log entry: CCN(CC)CCNC(C(=O)OCCC(C)C)c1ccccc1 (centres undefined) — outcome as called in the assay?
*A* inactive

====

Assay: qHTS of pediatric cancer cell lines to identify multiple opportunities for drug repurposing: Primary screen for BT-37 cells (AID 1347094)
Conditions: BT-37 viability, CellTiter-Glo luminescence, 48 h; series mostly up to 57.3 µM
Records with an inconclusive call do not appear. Active and inactive are the calls of the source. Calls come from the whole dose curve; as a rule, active = well fitted cell-killing curve with a large enough effect; inconclusive = small, poorly fitted or top-dose-only effect; inactive = flat fitted curve, though single readings scatter.
Pick one and only one: t = active, f = inactive

See these solved cases before continuing.
COMPOUND	CAT
Oc1cn2c(n1)Nc1ccc(Cl)c(Cl)c1C2	f
CC(=O)Oc1c(C)c(C)c2c(c1C)CC[C@@](C)(CCC[C@H](C)CCC[C@H](C)CCCC(C)C)O2	f
CCN(CC)CCNC(C(=O)OCCC(C)C)c1ccccc1 (stereo unspecified)	f
Cc1ncc([N+](=O)[O-])n1CC(O)CCl (stereo unspecified)	f
CCCc1c(OCCCCc2nn[nH]n2)ccc(C(C)=O)c1O	f

*Q* Lab log entry: CC(C)c1c(C(=O)Nc2ccccc2)c(-c2ccccc2)c(-c2ccc(F)cc2)n1CC[C@@H](O)C[C@@H](O)CC(=O)O — outcome as called in the assay?
*A* t

*Q* Lab log entry: Cc1cccc(Nc2cc(Cl)nc(SCC(=O)O)n2)c1C — outcome as called in the assay?
*A* f

*Q* Lab log entry: CCCCC(CC)COC(=O)c1ccccc1O (stereo unspecified) — outcome as called in the assay?
*A* f

*Q* Lab log entry: NCC(=O)CCC(=O)O — outcome as called in the assay?
*A* f

*Q* Lab log entry: NC(=O)c1ncn([C@@H]2O[C@H](CO)[C@@H](O)[C@H]2O)c1N — outcome as called in the assay?
*A* f

*Q* Lab log entry: CC1(C)S[C@@H]2[C@H](NC(=O)Cc3ccccc3)C(=O)N2[C@H]1C(=O)O (tested in a mixture with another compound) — outcome as called in the assay?
*A* f

*Q* Lab log entry: CCOC(=O)c1ccc(O)cc1 — outcome as called in the assay?
*A* f

*Q* Lab log entry: CC(=O)OCC(=O)[C@@]1(O)CC[C@H]2[C@@H]3CCC4=CC(=O)CC[C@]4(C)[C@H]3C(=O)C[C@@]21C — outcome as called in the assay?
*A* f

*Q* Lab log entry: c1ccc(CN(CC2=NCCN2)c2ccccc2)cc1 — outcome as called in the assay?
*A* f

*Q* Lab log entry: CC[C@@]1(c2ccccc2)NC(=O)N(C)C1=O — outcome as called in the assay?
*A* f

*Q* Lab log entry: CC(CN1c2ccccc2Sc2ccccc21)N(C)C (stereo unspecified) — outcome as called in the assay?
*A* f

====

Experiment: qHTS of pediatric cancer cell lines to identify multiple opportunities for drug repurposing: Primary screen for A673 cells (AID 1347092); also: nearly all actives have a fitted effect of over 45% in size
Conditions: A673 Ewing sarcoma viability, CellTiter-Glo ATP luminescence, 48 h; series mostly up to 46 µM
Records with an inconclusive call do not appear. Activity calls are given as the source filed them. The call rests on the fitted dose curve; in most records, active means well fitted cell-killing curve with a large enough effect; inconclusive means small, poorly fitted or top-dose-only effect; inactive means no such curve, though single readings can be large or run the other way.
Pick one and only one: y (active), n (inactive)

COMPOUND	CAT
C[C@@H]1C[C@H]2[C@@H]3C[C@H](F)C4=CC(=O)C=C[C@]4(C)[C@@]3(F)[C@@H](O)C[C@]2(C)[C@@]1(O)C(=O)CO	n
COc1ccc(S(=O)(=O)Nc2nnc(CC(C)C)s2)cc1	n
CC12CCC(CC1)C(C)(C)O2	n
CCN(CC)CCSC(=O)C(c1ccccc1)c1ccccc1	y
O=C(O)[C@@H]1CSCN1	n
Nc1ccc(S(=O)(=O)NC(=O)c2ccccc2)cc1	n
CC1=C(CC(=O)O)c2cc(F)ccc2/C1=C\c1ccc(S(C)(=O)=O)cc1	n
CN(C)CCCO[C@@H]1[C@H]2OC(C)(C)O[C@H]2O[C@@H]1C(O)CO (some centres not stated)	n

*Q* Lab log entry: O=c1cc[nH]c(=O)[nH]1 — outcome as called in the assay?
*A* n

*Q* Lab log entry: OCC(O)CN1CCN(c2ccccc2)CC1 (configuration not stated) — outcome as called in the assay?
*A* n

*Q* Lab log entry: CC(C(O)c1ccc(O)cc1)N1CCC(Cc2ccccc2)CC1 (configuration not stated) — outcome as called in the assay?
*A* n

*Q* Lab log entry: NC1CCN(c2cccc(Cl)n2)CC1 — outcome as called in the assay?
*A* n

====

Molecular target: Thyroid hormone receptor beta (Homo sapiens) (UniProt P10828)
Sequence (P10828 whole entry, looked up): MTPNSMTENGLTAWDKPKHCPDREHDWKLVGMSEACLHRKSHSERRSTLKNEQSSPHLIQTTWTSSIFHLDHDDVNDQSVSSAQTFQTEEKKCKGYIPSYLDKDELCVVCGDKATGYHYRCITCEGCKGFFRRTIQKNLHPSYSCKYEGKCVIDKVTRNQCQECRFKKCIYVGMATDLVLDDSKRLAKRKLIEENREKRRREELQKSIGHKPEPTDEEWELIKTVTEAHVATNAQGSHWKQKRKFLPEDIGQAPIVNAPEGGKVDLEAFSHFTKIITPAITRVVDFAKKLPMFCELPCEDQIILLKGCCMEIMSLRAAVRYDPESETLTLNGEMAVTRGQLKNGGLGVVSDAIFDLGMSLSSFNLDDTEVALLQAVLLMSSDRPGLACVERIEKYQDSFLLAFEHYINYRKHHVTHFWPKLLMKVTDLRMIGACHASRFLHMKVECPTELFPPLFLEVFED
Assay: qHTS assay for small molecule antagonists of thyroid hormone receptor beta signaling (AID 588547);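 also: cells stimulated with 0.4 nM T3 agonist during compound exposure; % is scaled to controls: 0 for no effect and ±100 for the full control effect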
Details: TR-UAS-bla HEK293, beta-lactamase ratio, antagonist mode, 18 h
Results filed as inconclusive are left out. Active and inactive are the calls of the source. The call rests on the fitted dose curve; in most records, active means well fitted inhibition curve with a large enough effect in the signal ratio, with a control signal flat (not every such curve was filed as active); inconclusive means small, poorly fitted or top-dose-only effect, or effect the other way, or a change in a side signal; inactive means flat fitted curve, though single readings scatter; the % refers to the signal ratio.
List of activity change % (negative = inhibition) values.

*Q* # return recorded activity change % (negative = inhibition) for input CC1=C(/C=C/C(C)=C/C=C/C(C)=C/C(=O)O)C(C)(C)CCC1
*A* 3.37% (inactive)

*Q* # return recorded activity change % (negative = inhibition) for input NCCNCCNCCN
*A* -6.32% (inactive)

*Q* # return recorded activity change % (negative = inhibition) for input CC(CN1c2ccccc2Sc2ccccc21)N(C)C (configuration not stated)
*A* -18.5% (inactive)

*Q* # return recorded activity change % (negative = inhibition) for input COC(=O)C1=C(C)NC(C)=C(C(=O)OC)C1c1ccccc1[N+](=O)[O-]
*A* -6% (inactive)

*Q* # return recorded activity change % (negative = inhibition) for input [Cl][In]([Cl])[Cl]
*A* 2% (inactive)

*Q* # return recorded activity change % (negative = inhibition) for input O=C1c2c(O)cccc2Cc2cccc(O)c21
*A* 3.09% (inactive)

*Q* # return recorded activity change % (negative = inhibition) for input CC12CCC(CC1)C(C)(C)O2
*A* 18.1% (inactive)

====

Test system: SC27B
Assay: qHTS profiling for inhibitors of Plasmodium falciparum proliferation (AID 504749); also: nearly all actives have a fitted effect of over 60% in size
Details: P. falciparum in erythrocytes, SYBR Green DNA, 72 h; series mostly up to 28.7 µM
Results filed as inconclusive are left out. The source made the active and inactive calls. Calls follow the shape of the dose curve; as a rule, active = well fitted inhibition curve with a large enough effect; inconclusive = small, poorly fitted or top-dose-only effect; inactive = flat fitted curve, though single readings scatter.
Pick one and only one: active, inactive

COMPOUND	CAT
Cc1cc(CC(=O)O)n(C)c1C(=O)c1ccc(Cl)cc1	inactive
CCN(CC)CCNC(=O)c1cc(Cl)c(N)cc1OC	inactive
O=C1c2c(O)cccc2Cc2cccc(O)c21	inactive

*Q* Lab log entry: Cc1cc2c(cc1S(N)(=O)=O)S(=O)(=O)CCC2 — outcome as called in the assay?
*A* inactive

*Q* Lab log entry: NC(=O)N/N=C/c1ccc([N+](=O)[O-])o1 — outcome as called in the assay?
*A* active

*Q* Lab log entry: O=C1O[C@H]([C@@H](O)CO)C(O)=C1O — outcome as called in the assay?
*A* inactive

*Q* Lab log entry: C[C@H]1O[C@@H](n2cc(F)c(=O)[nH]c2=O)[C@H](O)[C@@H]1O — outcome as called in the assay?
*A* inactive

*Q* Lab log entry: Cc1cc(N)c2ccccc2[n+]1CCCCCCCCCC[n+]1c(C)cc(N)c2ccccc21 — outcome as called in the assay?
*A* active

*Q* Lab log entry: CCCCN1CCCC[C@H]1C(=O)Nc1c(C)cccc1C — outcome as called in the assay?
*A* inactive

*Q* Lab log entry: Cc1ccc(C(C)C)cc2c(C)ccc1-2 — outcome as called in the assay?
*A* inactive

*Q* Lab log entry: O=c1cc(CO)occ1O — outcome as called in the assay?
*A* inactive

*Q* Lab log entry: CCOc1ccc2ccccc2c1C(=O)N[C@@H]1C(=O)N2[C@@H]1SC(C)(C)[C@@H]2C(=O)O — outcome as called in the assay?
*A* inactive

*Q* Lab log entry: O=C(Oc1ccccc1C(=O)O)c1ccccc1O — outcome as called in the assay?
*A* inactive

*Q* Lab log entry: CCOc1nc2cccc(C(=O)O)c2n1Cc1ccc(-c2ccccc2-c2nn[nH]n2)cc1 — outcome as called in the assay?
*A* active

*Q* Lab log entry: O=c1cc[nH]c(=O)[nH]1 — outcome as called in the assay?
*A* inactive

*Q* Lab log entry: Cc1cccc(C)c1NC(=O)CN(CC(=O)O)CC(=O)O — outcome as called in the assay?
*A* inactive

*Q* Lab log entry: O=c1cc[nH]c(=S)[nH]1 — outcome as called in the assay?
*A* inactive

*Q* Lab log entry: CN1CCC[C@@H]1Cc1c[nH]c2ccc(CCS(=O)(=O)c3ccccc3)cc12 — outcome as called in the assay?
*A* inactive

*Q* Lab log entry: CCCCC(CC)COC(=O)c1ccccc1O (stereo not given) — outcome as called in the assay?
*A* inactive

*Q* Lab log entry: COC(=O)C1=C(C)NC(C)=C(C(=O)OC)C1c1ccccc1[N+](=O)[O-] — outcome as called in the assay?
*A* inactive

*Q* Lab log entry: O=C1OC(OC(=O)c2cccnc2Nc2cccc(C(F)(F)F)c2)c2ccccc21 (stereo not given) — outcome as called in the assay?
*A* inactive
